Test system: DNA synthesis
assay_method_text: Secondary Screening, Macromolecules Synthesis DNA
Format: cell-based
measurement_context: Secondary Evaluation
Record form. Attribute: IC50. Fill in for each entry.

Name the recorded IC50 for CCOC1=C(C)C(=O)C2=C(C1=O)C(CNC(=O)C(C)N)N1C(O)C3Cc4cc(C)c(OCC)c(O)c4C(C1C2)N3C (stereo not shown) [Safracin B (OEt)] .
1760 nM

I have this molecule here, COC1=C(C)C(=O)C2=C(C1=O)C(CNC(=O)C(C)N)N1C(O)C3Cc4cc(C)c(OC)c(O)c4C(N3)C1C2 (stereo not shown) [Safracin D] , and I need its recorded IC50.
15200 nM

I have this molecule here, COC1=C(C)C(=O)C2=C(C1=O)C(CNC(=O)C(C)N)N1CC3Cc4cc(C)c(OC)c(O)c4C(N3)C1C2 (stereo not shown) [Safracin E] , and I need its recorded IC50.
> 19600 nM

Any idea what IC50 was measured for CCOC1=C(C)C(=O)C2=C(C1=O)C(CNC(=O)C(C)N)N1CC3Cc4cc(C)c(OCC)c(O)c4C(C1C2)N3C (stereo not shown) [Safracin A (OEt)] ?
1810 nM
